- test system: biotinylated human DLL3 protein expressed as a human IgG1 fusion protein (human) (UniProt Q9NYJ7)
- Sequence (Q9NYJ7 other isoform, or with tags, fused parts or gaps): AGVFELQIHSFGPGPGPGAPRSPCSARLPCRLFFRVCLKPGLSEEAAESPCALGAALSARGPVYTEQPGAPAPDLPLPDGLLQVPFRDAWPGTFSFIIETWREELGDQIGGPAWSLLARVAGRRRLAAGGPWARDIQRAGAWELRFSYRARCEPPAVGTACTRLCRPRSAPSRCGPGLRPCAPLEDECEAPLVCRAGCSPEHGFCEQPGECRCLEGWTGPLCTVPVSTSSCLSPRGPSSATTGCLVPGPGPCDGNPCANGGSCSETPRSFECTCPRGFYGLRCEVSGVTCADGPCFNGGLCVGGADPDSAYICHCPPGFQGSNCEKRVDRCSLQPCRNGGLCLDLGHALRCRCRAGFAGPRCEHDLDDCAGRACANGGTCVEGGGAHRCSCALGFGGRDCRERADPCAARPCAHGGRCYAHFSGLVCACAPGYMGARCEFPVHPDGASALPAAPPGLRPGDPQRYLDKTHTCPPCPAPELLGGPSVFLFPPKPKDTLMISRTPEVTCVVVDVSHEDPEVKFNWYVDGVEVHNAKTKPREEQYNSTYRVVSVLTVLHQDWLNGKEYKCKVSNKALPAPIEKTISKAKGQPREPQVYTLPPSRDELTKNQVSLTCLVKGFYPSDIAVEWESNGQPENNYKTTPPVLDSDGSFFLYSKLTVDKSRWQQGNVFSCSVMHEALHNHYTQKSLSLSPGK
- assay details: Octet BLI; biotinylated huDLL3-IgG1 fusion on streptavidin tips; single 50 nM; conditioned medium
// reported pKd per item
Please treat pKd as minus the base-10 logarithm of the molar concentration.

anti-DLL3 trispecific protein 1H01 (protein, part only; not given: CD3 binder and albumin binder, part only) chain, part: EVQLVESGGGLVQPGGSLTLSCVASGSTSSINAMAWYRRAPGKQRELAAGISSDNSKVYADSVKGRFTISRDNAKNSVYLQMNSLRAEDTAVYYCYYFRTRSGSSMRYWGQGTLVTVSSGGGGSGGGSGGGGSGGGSHHHHHH : 8.24

# evaluate next
// Input: anti-DLL3 trispecific protein 4E010 (protein, part only; not given: anti-CD3 and anti-albumin domains, part only) chain, part: EVQLVESGGGLVQPGGSLTLSCAASGSSVKFLSMAWYRQAPGKKRELVAGISADGSTDYIDSVKGRFTISRDNAKNSVYLQMNSLRAEDTAVYYCYAYRWRTRYTYWGQGTLVTVSSGGGGSGGGSGGGGSGGGSHHHHHH . Output its pKd only.
8.05
